This collection of values is drawn from the supplement of paper PMC12067926.

- Test system: Microbacterium 1 (Microbacterium arborescens)
- method description: relative growth (AUC of 72 h growth curve relative to DMSO control, dAUC) (ratio); higher = more growth (less inhibition), active = hit call of the paper
- reported conditions: 20 µM
Parameter: relative growth. Scope: all listed entries.
Just the number, please, no unit after it.

>>> print(df.to_string())
                                   molecule     test_readout  recorded_number
0  COC(=O)c1ccccc1S(=O)(=O)NC(=O)Nc1nc(C)nc(OC)n1  relative growth             1.01
1  CC(Oc1ccc(Oc2nc3ccc(Cl)cc3o2)cc1)C(=O)O (configuration not stated)  relative growth            0.986
2  COc1cc(C)c(C(=O)c2c(OC)ccc(Br)c2C)c(OC)c1OC  relative growth             1.03
3  CCOCn1c(-c2ccc(Cl)cc2)c(C#N)c(Br)c1C(F)(F)F  relative growth            0.996

Consider now this further molecule.
q: # query: relative growth of entry CSc1nnc(C(C)(C)C)c(=O)n1N
a: 1
